# System: pDNA-PK induction in FaDU tumour spheroids
# experiment description: Multicellular tumour spheroid + radiation, pDNA-PK (ser2056) inhibition, immunohistochemical endpoint, FaDU
# Format: cell-based
# condition: Homo sapiens, 2 h, spheroids, 20 Gy, 20% O2, Example 8, read-out: Cell line: FaDU Immunohistochemical endpoint pDNA-PK inhibition EC50
readout type: EC50

compound | experimental system | readout type | result
O=C(NO)c1cnc2cc(N3CCOCC3)nc(O[C@H]3CC[C@@H](n4ccnc4)CC3)c2c1 | pDNA-PK induction in FaDU tumour spheroids | EC50 | 1000 to 10000 nM
CN(C)C(=O)COc1cnc(N[C@H]2CC[C@@H](Oc3nc(N4CCOCC4)cc4ncc(Br)cc34)CC2)nc1 | pDNA-PK induction in FaDU tumour spheroids | EC50 | 1000 to 10000 nM
O=C(O)c1cnc2cc(N3CCOCC3)nc(O[C@H]3CC[C@@H](Nc4ncccn4)CC3)c2c1 | pDNA-PK induction in FaDU tumour spheroids | EC50 | 1000 to 10000 nM
CN(C)CCOc1cnc(N[C@H]2CC[C@@H](Oc3nc(N4CCOCC4)cc4ncccc34)CC2)nc1 | pDNA-PK induction in FaDU tumour spheroids | EC50 | 10 to 500 nM
CN(C)C(=O)COc1cnc(N[C@H]2CC[C@@H](Oc3nc(N4CCOCC4)cc4ncccc34)CC2)nc1 | pDNA-PK induction in FaDU tumour spheroids | EC50 | 10 to 500 nM
O=C(Nc1ccncc1)[C@H]1CC[C@@H](Oc2nc(N3CCOCC3)cc3ncccc23)CC1 [Compound 154e] | pDNA-PK induction in FaDU tumour spheroids | EC50 | 500 to 1000 nM
COc1ccc(NC(=O)N[C@H]2CC[C@@H](Oc3nc(N4CCOCC4)cc4ncccc34)CC2)cc1 | pDNA-PK induction in FaDU tumour spheroids | EC50 | 500 to 1000 nM

----------
# IC50 values compiled below
# experimental system: DNA-PK phosphorylation at Serine 2056 (Homo sapiens, UniProt P78527)
# Construct: FaDu cells were purchased from ATCC; host or cells: FaDu
# experiment description: Cellular Assay for Inhibition of DNA-PK Phosphorylation at Serine 2056 in FaDu cells (sandwich ELISA, neocarzinostatin)
# Type: cell-based
# condition: pSer2056 DNA-PK, neocarzinostatin 1 μg/mL, Table 1

compound | IC50
O=C(Nc1ccncc1)[C@H]1CC[C@@H](Oc2nc(N3CCOCC3)cc3ncccc23)CC1 [Compound 154e] | 100 to 1000 nM
O=C(Cn1c(=O)n(C2CCOCC2)c2nc(N[C@H]3CC[C@@H](Oc4nc(N5CCOCC5)cc5ncccc45)CC3)ncc21)N1CCC1 | < 100 nM
O=C(NO)c1cnc2cc(N3CCOCC3)nc(O[C@H]3CC[C@@H](n4ccnc4)CC3)c2c1 | 1000 to 10000 nM
O=S(=O)(Nc1cnc2cc(N3CCOCC3)nc(O[C@H]3CC[C@@H](Nc4ncccn4)CC3)c2c1)C1CC1 | < 100 nM
NC(=O)COc1cnc(N[C@H]2CC[C@@H](Oc3nc(N4CCOCC4)cc4ncccc34)CC2)nc1 | < 100 nM

----------
# Cl_obs values compiled below
# experiment description: Pharmacokinetic study in mice (IV and PO), plasma
# Format: in vivo, mouse
# condition: mouse plasma, PO, 10 mg/kg

smi | Cl_obs (mL/min/kg)
CN(C)C(=O)Cn1ccc2nc(N[C@H]3CC[C@@H](Oc4nc(N5CCOCC5)cc5ncccc45)CC3)ncc21 | 63.328
CN1CCN(CCOc2cnc(N[C@H]3CC[C@@H](Oc4nc(N5CCOCC5)cc5ncccc45)CC3)nc2)CC1 | 27.4375
O=C(COc1cnc(N[C@H]2CC[C@@H](Oc3nc(N4CCOCC4)cc4ncccc34)CC2)nc1)N1CCC1 | 9.1343
O=C(COc1cnc(N[C@H]2CC[C@@H](Oc3nc(N4CCOCC4)cc4ncccc34)CC2)nc1)N1CCOCC1 | 13.265
CN(C)C(=O)Cn1c(=O)n(C2CCOCC2)c2nc(N[C@H]3CC[C@@H](Oc4nc(N5CCOCC5)cc5ncccc45)CC3)ncc21 | 24.6043

Source: patent US20240239790A1
